molecular target: B-Raf kinase (Homo sapiens, UniProt P15056); construct: GST (N); purchased Sigma; assay: Biochemical assay for B-Raf.1 (coupled pyruvate kinase/lactate dehydrogenase); conditions: read-out: BRAF.1 IC50
Sequence (P15056 416-766): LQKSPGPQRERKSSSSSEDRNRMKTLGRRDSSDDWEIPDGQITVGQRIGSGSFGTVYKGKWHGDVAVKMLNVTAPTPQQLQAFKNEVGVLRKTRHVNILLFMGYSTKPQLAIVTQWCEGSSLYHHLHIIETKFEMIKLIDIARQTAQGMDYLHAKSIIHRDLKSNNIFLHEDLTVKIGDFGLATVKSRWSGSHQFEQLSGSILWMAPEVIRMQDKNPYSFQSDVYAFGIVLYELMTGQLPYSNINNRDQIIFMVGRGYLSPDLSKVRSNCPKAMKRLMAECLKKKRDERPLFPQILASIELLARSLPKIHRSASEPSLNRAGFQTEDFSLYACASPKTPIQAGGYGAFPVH
pIC50: −log10 of the molar value.
METRIC NAME: pIC50

| MOLECULE | TESTED ON | METRIC NAME | REPORTED |
| --- | --- | --- | --- |
| Cc1cc(F)c(NC(=O)NCC23CC(F)(C2)C3)cc1-c1cc(OCCO)nc(-c2ccnc3[nH]ncc23)c1 | B-Raf kinase (Homo sapiens, UniProt P15056) | pIC50 | ≥ 7.00 |
| Cc1ccc(NC(=O)NCCC(C)(C)C)cc1-c1cc(N2CCOCC2)nc(N2CC(O)C2)n1 | B-Raf kinase (Homo sapiens, UniProt P15056) | pIC50 | 6.00 to 6.30 |
| Cc1ccc(NC(=O)NCCC(C)(C)C#N)cc1-c1cc(-c2cnn(C)c2)nc(N2CCOCC2)c1 | B-Raf kinase (Homo sapiens, UniProt P15056) | pIC50 | 6.00 to 6.30 |
| Cc1cc(F)c(NC(=O)NCCC2(C(F)(F)F)CC2)cc1-c1cc(N2CCOCC2)nc(N2CC[C@H](N(C)C)C2)c1 | B-Raf kinase (Homo sapiens, UniProt P15056) | pIC50 | 6.30 to 7.00 |
| Cc1cc(F)c(NC(=O)N[C@H]2C[C@H](N(C)C)C2)cc1-c1cc(OCCO)nc(-c2ccnc3[nH]ncc23)c1 | B-Raf kinase (Homo sapiens, UniProt P15056) | pIC50 | < 6.00 |
| CC(=O)Nc1cc(-c2cc(-c3cc(NC(=O)NCC45CC(F)(C4)C5)c(F)cc3C)cc(OCCO)n2)ccn1 | B-Raf kinase (Homo sapiens, UniProt P15056) | pIC50 | ≥ 7.00 |
| COC(C)(C)CCNC(=O)Nc1cc(-c2ccnc(-c3ccnc(NC(=O)C4CC4)c3)c2)c(F)cc1F | B-Raf kinase (Homo sapiens, UniProt P15056) | pIC50 | ≥ 7.00 |
| Cc1ccc(NC(=O)NCCC2(C)CC2)cc1-c1cc(-c2cnn(C)c2)nc(N2CCOCC2)c1 | B-Raf kinase (Homo sapiens, UniProt P15056) | pIC50 | ≥ 7.00 |
| COC(=O)Nc1cc(-c2cnnc(-c3cc(NC(=O)NCCC(C)(C)F)c(F)cc3C)c2)ccn1 | B-Raf kinase (Homo sapiens, UniProt P15056) | pIC50 | ≥ 7.00 |
| Cc1ncc(NC(=O)NC2CC(C)(C)C2)cc1-c1cc(OCCO)nc(-c2ccnc(NC(=O)C3CC3)c2)c1 | B-Raf kinase (Homo sapiens, UniProt P15056) | pIC50 | ≥ 7.00 |
| CC(=O)Nc1cc(-c2cc(-c3cc(NC(=O)NC4CCC(F)(F)CC4)c(F)cc3C)cc(OCCO)n2)ccn1 | B-Raf kinase (Homo sapiens, UniProt P15056) | pIC50 | ≥ 7.00 |
| COC(=O)Nc1cc(-c2cnnc(-c3cc(NC(=O)N4CCC(CC(F)(F)F)C4)c(F)cc3C)c2)ccn1 (stereo not drawn) | B-Raf kinase (Homo sapiens, UniProt P15056) | pIC50 | ≥ 7.00 |
| Cc1cc(F)c(NC(=O)NCCC(C)(C)F)cc1-c1cc(OCCO)nc(-c2ccnc3[nH]ccc23)c1 | B-Raf kinase (Homo sapiens, UniProt P15056) | pIC50 | ≥ 7.00 |
| CC(=O)Nc1cc(-c2cc(-c3cc(NC(=O)N[C@H]4C[C@](C)(F)C4)ccc3C)cc(OCCO)n2)ccn1 | B-Raf kinase (Homo sapiens, UniProt P15056) | pIC50 | ≥ 7.00 |
| Cc1cc(F)c(NC(=O)NCCC(C)(C)C#N)cc1-c1cc(OCCO)nc(-c2ccncc2)c1 | B-Raf kinase (Homo sapiens, UniProt P15056) | pIC50 | 6.30 to 7.00 |
| Cc1ncc(NC(=O)NCCN2CCC2)cc1-c1cc(OCCO)nc(-c2ccnc(NC(=O)C3CC3)c2)c1 | B-Raf kinase (Homo sapiens, UniProt P15056) | pIC50 | < 6.00 |
| COC(=O)Nc1cc(-c2cnnc(-c3cc(NC(=O)NCCC(C)(C)OC)c(F)cc3C)c2)ccn1 | B-Raf kinase (Homo sapiens, UniProt P15056) | pIC50 | 6.30 to 7.00 |
| Cc1ccc(NC(=O)NCCC(C)(C)C)cc1-c1cc(N2CCOCC2)nc(N2CC(C)(O)C2)n1 | B-Raf kinase (Homo sapiens, UniProt P15056) | pIC50 | ≥ 7.00 |
| COC(=O)Nc1cc(-c2nc(OCCO)cc(-c3cc(NC(=O)NC4CC(C)(C)C4)cnc3C)n2)ccn1 | B-Raf kinase (Homo sapiens, UniProt P15056) | pIC50 | 6.30 to 7.00 |
| COC(=O)Nc1cc(-c2nccc(-c3cc(NC(=O)NCCC4(OC)CC4)cnc3C)n2)ccn1 | B-Raf kinase (Homo sapiens, UniProt P15056) | pIC50 | 6.00 to 6.30 |
| COC(=O)Nc1cc(-c2nccc(-c3cc(NC(=O)NCCC4(C)CC4)cnc3C)n2)ccn1 | B-Raf kinase (Homo sapiens, UniProt P15056) | pIC50 | 6.30 to 7.00 |
| COC(=O)Nc1cc(-c2cc(-c3cc(NC(=O)NC4CC(C)(C)C4)cnc3C)cc(OCCO)n2)ccn1 | B-Raf kinase (Homo sapiens, UniProt P15056) | pIC50 | ≥ 7.00 |
| Cc1ncc(NC(=O)NCCC(C)(C)F)cc1-c1nccc(-c2ccnc(NC(=O)C3CC3)c2)n1 | B-Raf kinase (Homo sapiens, UniProt P15056) | pIC50 | 6.30 to 7.00 |
| CC(=O)Nc1cc(-c2cc(-c3cc(NC(=O)NCCC4(C)CC4)c(F)cc3C)ccn2)ccn1 | B-Raf kinase (Homo sapiens, UniProt P15056) | pIC50 | 6.00 to 6.30 |
| CC(=O)Nc1cc(-c2cc(-c3cc(NC(=O)NCCC(C)(C)C(F)(F)F)c(F)cc3C)cc(C3CC3)n2)ccn1 | B-Raf kinase (Homo sapiens, UniProt P15056) | pIC50 | ≥ 7.00 |
| COC(=O)Nc1cc(-c2cc(-c3cc(NC(=O)NCCC4(OC)CC4)c(F)cc3C)ccn2)ccn1 | B-Raf kinase (Homo sapiens, UniProt P15056) | pIC50 | ≥ 7.00 |
| Cc1cc(F)c(NC(=O)NCCC2(C)CC2)cc1-c1cc(OCCO)nc(-c2ccnc(NC(=O)C3CC3)c2)c1 | B-Raf kinase (Homo sapiens, UniProt P15056) | pIC50 | ≥ 7.00 |
| COC(C)(C)CCNC(=O)Nc1ccc(C)c(-c2cc(-c3cnn(C)c3)nc(N3CCOCC3)c2)c1 | B-Raf kinase (Homo sapiens, UniProt P15056) | pIC50 | ≥ 7.00 |
| COC(=O)Nc1cc(-c2cncc(-c3cc(NC(=O)N4CCCC4)ccc3C)c2)ccn1 | B-Raf kinase (Homo sapiens, UniProt P15056) | pIC50 | < 6.00 |
| Cc1ccc(NC(=O)Nc2cnn(CC(F)(F)F)c2)cc1-c1cc(OCCO)nc(N2CCOCC2)c1 | B-Raf kinase (Homo sapiens, UniProt P15056) | pIC50 | < 6.00 |
